biological target: UniProtKB Q13191; assay: Cbl-b activity assay (Cbl-b inhibition assay), TR-FRET of Cbl-b interaction with UbcH5B-Ub; format: biochemical; settings: assay buffer with 100 mM NaCl, 60 nM Src kinase; read-out: Cbl-b activity IC50
Sequence (Q13191 36-427): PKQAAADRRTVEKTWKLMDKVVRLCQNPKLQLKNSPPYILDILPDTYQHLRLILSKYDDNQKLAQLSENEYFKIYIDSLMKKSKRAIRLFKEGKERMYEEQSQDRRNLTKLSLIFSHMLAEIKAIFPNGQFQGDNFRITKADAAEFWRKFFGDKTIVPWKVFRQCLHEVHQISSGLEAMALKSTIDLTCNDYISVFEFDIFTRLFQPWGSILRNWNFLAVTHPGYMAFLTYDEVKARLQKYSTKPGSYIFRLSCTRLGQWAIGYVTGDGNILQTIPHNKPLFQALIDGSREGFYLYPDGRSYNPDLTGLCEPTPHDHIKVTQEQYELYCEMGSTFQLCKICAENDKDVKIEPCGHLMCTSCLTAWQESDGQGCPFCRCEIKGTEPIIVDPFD
pIC50: −log10 of the molar value.
Provide the recorded pIC50 for the entries that follow.

Short answer on UniProtKB Q13191 for Cn1cnnc1CC1(c2cccc(N3Cc4c(cc(CN5CCC(F)(F)C5)cc4C(F)(F)F)C3=O)c2)COC1 , pIC50: > 7.00

Test item COc1c(C(=O)Nc2cccc([C@H](C)Sc3nncn3C)c2)cccc1C(F)(F)F ; UniProtKB Q13191; reported pIC50 was 5.00 to 5.52

Result for Cn1cnnc1CC1(c2cccc(N3Cc4c(cc(CN5Cc6cccc(C#N)c6C5)cc4C(F)(F)F)C3=O)c2)COC1 , tested on UniProtKB Q13191, pIC50: > 7.00

The compound Cn1cnnc1CC1(c2cccc(N3Cc4c(cc(CN5CCS(=O)(=O)CC5)cc4C(F)(F)F)C3=O)c2)COC1 , tested on UniProtKB Q13191, showed pIC50 of > 7.00

Item Cn1cnnc1CC1(c2cccc(N3Cc4c(cc(CN5C6CCCC5CC6)cc4C(F)(F)F)C3=O)c2)COC1 was tested on UniProtKB Q13191; the reported pIC50 is > 7.00

Entry CO[C@@H]1CCN(C(=O)c2ccnc(C(=O)Nc3cccc([C@H](C)Sc4nncn4C)c3)c2)C1 under UniProtKB Q13191 had pIC50 of 5.00 to 5.52

# pIC50 measured on UniProtKB Q13191 for item C[C@H](Cc1nncn1C)c1cc(NC2(C)COC2)nc(N2Cc3c(cccc3C(F)(F)F)C2=O)c1 = 6.00 to 6.52

Sample C[C@H](Cc1nncn1C)c1cccc(NC(=O)c2cc(C(=O)N3CC[C@@](C)(N)C3)ccn2)c1 [Compound 230, 2,2,2-trifluoroacetate] , system: UniProtKB Q13191. Its pIC50 is 5.00 to 5.52

Entry C[C@H](Cc1nncn1C)c1cccc(NC(=O)c2cc3cccn3cn2)c1 ; assay system UniProtKB Q13191; pIC50 recorded at 6.00 to 6.52

The compound Cn1cnnc1CC1(c2cccc(N3Cc4c(cc(C(F)(F)C(=O)O)cc4C(F)(F)F)C3=O)c2)COC1 on UniProtKB Q13191: pIC50 was 6.00 to 6.52

# value of pIC50, UniProtKB Q13191, item Cn1cnnc1C[C@@](C)(F)c1cccc(N2Cc3c(cccc3C(F)(F)F)C2=O)c1 [Compound 298a] = 5.52 to 6.00

# pIC50 measured on UniProtKB Q13191 for item C[C@H](Cc1nncn1C)c1cccc(N2Cc3c(cc(N(C)[C@H]4CCNC4)cc3C(F)(F)F)C2=O)c1 = > 7.00

Sample Cn1cnnc1CC1(c2cccc(N3Cc4c(cc(C5=CCOC5)cc4C(F)(F)F)C3=O)c2)COC1 , system: UniProtKB Q13191. Its pIC50 is > 7.00

Considering C[C@H](Cc1nncn1C)c1cccc(N2Cc3c(ccnc3C(C)(C)F)C2=O)c1 , its pIC50 with UniProtKB Q13191 was recorded as 6.00 to 6.52

Tested on UniProtKB Q13191, the item Cn1cnnc1CC1(c2cccc(N3Cc4c(cc(N5CCNC6(CC6)C5)cc4C(F)(F)F)C3=O)c2)COC1 showed pIC50 equal to > 7.00
